Reported one-hybrid fitness for binding parS DNA values for a set of variants
B1: Caulobacter ParB omega fusion; a variant is named by its letters at X, in order, B8GW30 (parent)
chain: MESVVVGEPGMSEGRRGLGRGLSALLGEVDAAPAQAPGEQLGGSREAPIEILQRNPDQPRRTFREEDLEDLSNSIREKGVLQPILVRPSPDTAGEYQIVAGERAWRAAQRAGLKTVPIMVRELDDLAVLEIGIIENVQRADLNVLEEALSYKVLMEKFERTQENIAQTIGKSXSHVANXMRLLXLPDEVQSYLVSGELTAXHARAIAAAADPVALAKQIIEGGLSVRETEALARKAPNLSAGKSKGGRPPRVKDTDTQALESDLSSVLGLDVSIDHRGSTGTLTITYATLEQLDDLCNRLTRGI

# Variants of: B1
# assay_explanation: one-hybrid fitness for binding parS DNA (scaled: cognate 1, non-cognate 0); higher = stronger binding
# condition_summary: with parS DNA site
In all, about 81,000 sequences were measured (“one-hybrid fitness for binding parS DNA”: median about -0.17, highest 2% from about 0.51 on). What follows is part of a selection rich in the highest values, with near analogues and random picks from the rest.
measured_endpoint: one-hybrid fitness for binding parS DNA

mutation_list=MTTC result="≤ 0.2"
mutation_list=RYLR result="≤ 0.2"
mutation_list=QVSF result="≤ 0.2"
mutation_list=RYLK result="≤ 0.2"
mutation_list=RYSC result=0.929
mutation_list=RYQN result=0.318
mutation_list=YKSG result="≤ 0.2"
mutation_list=MRPT result="≤ 0.2"
mutation_list=RYLC result=0.955
mutation_list=NTWT result="≤ 0.2"
mutation_list=RYSF result="≤ 0.2"
mutation_list=HRFW result="≤ 0.2"
mutation_list=RYHR result="≤ 0.2"
mutation_list=VVSY result="≤ 0.2"
mutation_list=WRYW result="≤ 0.2"
mutation_list=RYSK result="≤ 0.2"
mutation_list=RYHC result=0.949
mutation_list=RAAH result="≤ 0.2"
mutation_list=RAFN result=0.426
mutation_list=PPLK result="≤ 0.2"
mutation_list=TYYF result="≤ 0.2"
mutation_list=RAAS result=1
